Molecular target: MAGE-A11:PCF11 interaction (GST-MAGE-A11 and FAM-PCF11_4) (Homo sapiens, UniProt P43364)
Construct: GST-MAGE-A11 MHD (human MAGE-A11 MHD amino acid 218-429); made in house; host or cells: E. coli BL21(DE3)
Sequence (P43364 218-429): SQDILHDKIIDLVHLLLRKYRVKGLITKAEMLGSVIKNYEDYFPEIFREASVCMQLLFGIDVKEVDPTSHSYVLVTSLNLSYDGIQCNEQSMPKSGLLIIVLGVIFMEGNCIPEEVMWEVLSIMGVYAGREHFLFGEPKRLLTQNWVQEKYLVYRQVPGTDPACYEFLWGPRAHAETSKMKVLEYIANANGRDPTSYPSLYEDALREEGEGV
Experiment: TR-FRET primary / single point screen at 15 µM
Format: binding
Conditions: single point TR-FRET screening of 797 quinoline compounds against MAGE-A11:PCF11
Each entry below carries its recorded percent inhibition (TR-FRET).
Give the figure by itself; no unit, no explanation.

Solved cases below.
| molecule | percent inhibition (TR-FRET) |
| --- | --- |
| Cc1ccc(C)c(N2CCN(c3c(S(=O)(=O)c4ccccc4)cnc4ccc(F)cc34)CC2)c1 [SJ000117083] | -15.3776 |
| CCOc1ccc2ncc(S(=O)(=O)c3ccc(C)cc3)c(N3CCN(CC)CC3)c2c1 [SJ000083964] | -5.899 |
| CCCN(CCCNc1c2ccc(Cl)cc2nc2ccc(OC)cc12)Cc1cc(C)ccc1C [SJ000520960] | -119.324 |
| CCCCCCNCCCNc1c2ccc(Cl)cc2nc2ccc(OC)cc12 [SJ000361097] | -281.691 |
| CCCN(CCCNc1c2ccc(Cl)cc2nc2ccc(OC)cc12)CCOCc1ccccc1 [SJ000522981] | -212.396 |

# return recorded percent inhibition (TR-FRET) for entry O=C(O)CCCNC(=O)CNc1c2ccccc2nc2ccccc12 [SJ000016432]
9.598

# return recorded percent inhibition (TR-FRET) for entry CCCN(CCCCNc1ccnc2cc(Cl)ccc12)Cc1cc(Br)ccc1O [SJ000311196]
5.724

# return recorded percent inhibition (TR-FRET) for entry COc1ccc2nc3cc(Cl)ccc3c(NCCCNCc3ccccc3F)c2c1 [SJ000523034]
-353.834

# return recorded percent inhibition (TR-FRET) for entry C=CCOCC(O)CN1CCN(c2cc(C)nc3ccccc23)CC1 (stereo not drawn) [SJ000227652]
-0.207

###

Each entry below carries its recorded percent inhibition (TR-FRET).
Target: MAGE-A11:PCF11 interaction (GST-MAGE-A11 and FAM-PCF11_4) (Homo sapiens)
Construct: GST-MAGE-A11 MHD (human MAGE-A11 MHD amino acid 218-429); made in house; host or cells: E. coli BL21(DE3)
Assay: TR-FRET primary / single point screen at 15 µM
Format: binding
Conditions: single point TR-FRET screening of 797 quinoline compounds against MAGE-A11:PCF11
Experimental: The TR-FRET assay buffer with a formula of 50 mM Tris pH 7.5, 20 mM MgCl2, 0.1 mg/ml BSA and 1 mM DTT was freshly prepared before each experiment. […] After incubation, the fluorescent emission signals at 520 nm and 490 nm channels of individual wells were measured with a PHERAstar FS plate reader (BMG Labtech; Durham, NC, USA) by using a 340 nm excitation filter, 100 µs delay time, and 200 µs integration time. […] The TR-FRET signals for individual wells were measured with a PHERAstar FS plate reader. […]

| query-smiles | reading |
| --- | --- |
| Clc1ccc2c(NCCCCN(Cc3ccccc3)Cc3ccco3)ccnc2c1 | 12.0487 |

# return recorded percent inhibition (TR-FRET) for entry CCOC(=O)c1cnc2c(C)cc(C)cc2c1NCCN(C)C
4.92

# return recorded percent inhibition (TR-FRET) for entry CCc1ccc2ncc(S(=O)(=O)c3ccccc3)c(N3CCN(CC)CC3)c2c1
3.238

# return recorded percent inhibition (TR-FRET) for entry CCN(CC)CC(=O)Nc1c2c(nc3ccccc13)CCC2
0.6542

# return recorded percent inhibition (TR-FRET) for entry Clc1ccc2c(NCCCCN(Cc3ccccc3)Cc3nccs3)ccnc2c1
-1.698

# return recorded percent inhibition (TR-FRET) for entry COc1ccc2ncc(S(=O)(=O)c3ccc(Cl)cc3)c(N3CCN(C)CC3)c2c1
-3.658

# return recorded percent inhibition (TR-FRET) for entry COc1ccc(CN(CCCCNc2ccnc3cc(Cl)ccc23)Cc2ccccc2)cc1OC
0.05797

# return recorded percent inhibition (TR-FRET) for entry COc1ccc2ncc(S(=O)(=O)c3ccc(C)cc3)c(N3CCN(c4ccc(F)cc4)CC3)c2c1
-118.524

# return recorded percent inhibition (TR-FRET) for entry Cc1ccc(S(=O)(=O)c2cnc3ccc(F)cc3c2N2CCN(C)CC2)cc1C
-7.6267

# return recorded percent inhibition (TR-FRET) for entry CCCN(CCCNc1c2ccc(Cl)cc2nc2ccc(OC)cc12)CC1CCCCC1
-163.904
